- method-notes: Plasma protein binding in human assessed as unbound fraction at 10 uM incubated for 5 hrs by rapid equlibrium dialysis based LC-MS/MS method
measurement-kind: fraction unbound at 5 h, 10 µM

1) CCc1nc([C@@H](N)CC(C)C)nc2ccc(-c3cnco3)cc12
0.32
2) CC(C)C[C@H](N)c1cc(C#N)c2cc(-c3cnco3)ccc2n1
0.014
3) CC(C)C[C@@H](N)c1cc(C#N)c2cc(-c3ccncc3)ccc2n1
0.18
4) CCc1nc([C@@H](N)CC(C)C)nc2cc(OC)c(-c3cnco3)cc12
0.17
5) CC(C)C[C@H](N)c1cc(C#N)c2cc(-c3ccncc3)ccc2n1
0.18
